All figures here come from ChEMBL document CHEMBL2311431.

System: Pseudomonas aeruginosa
assay_method_text: Bactericidal activity against Pseudomonas aeruginosa ATCC 27853 after 72 hrs by serial subcultivation method
Format: functional
measurement_context: ATCC 27853, 72 h
Class (by MBC) -- low range = under 50 µM, mid range = from 50 µM up to 70 µM, high range = 70 µM and over

Look over these answered cases.
- smiles_str: "O=C1N/C(=N\\c2nccs2)S/C1=C\\c1cc(Br)ccc1O"
  cat: "low range"
- smiles_str: "O=C1N/C(=N\\c2nccs2)S/C1=C\\c1c(Cl)cccc1Cl"
  cat: "low range"
- smiles_str: "COc1ccccc1/C=C1\\S/C(=N/c2nccs2)NC1=O"
  cat: "mid range"
- smiles_str: "CN(C)c1ccc(/C=C2\\S/C(=N/c3nccs3)NC2=O)cc1"
  cat: "mid range"
- smiles_str: "Cc1ccc(/C=C2\\S/C(=N/c3nccs3)NC2=O)cc1"
  cat: "low range"

Band assignment needed for O=C1N/C(=N\c2nccs2)S/C1=C\c1cccc(Cl)c1Cl please.
mid range

Band assignment needed for COc1ccc(OC)c(/C=C2\S/C(=N/c3nccs3)NC2=O)c1 please.
high range

Band assignment needed for Cc1csc(/N=C2\NC(=O)/C(=C/c3ccccc3Cl)S2)n1 please.
high range

Band assignment needed for Cc1csc(/N=C2\NC(=O)/C(=C/c3ccc(Cl)cc3)S2)n1 please.
high range

Band assignment needed for O=C1N/C(=N\c2nccs2)S/C1=C\c1ccc(F)cc1 please.
mid range
